Measurement Parameters: 298.15 K; 101.33 kPa; Liquid; Vibrating tube method
Each item that follows carries a reported mass density.

Smiles Notation	mass density / kg/m3
ClCCCCCCl	1095.01
CCCCCO	810.84
ClCCCCl	1178.97
CCCCCCO	815.18

====

Measurement Parameters: 313.15 K, Pendant drop shape

Smiles Notation	surface tension liquid-gas [mN/m]
BrCCBr	36.1
CCCCCO	23.62
BrCCCBr	37.12
ClCCCCl	28.7
ClCCCl	26.02
ClCCCCCCl	32.78
ClCCCCCCCl	32.7
BrCCCCCCBr	36.63
ClCCCCCl	31.59
BrCCCCCBr	37.23
CCCCCCO	24.52
BrCBr	35.55
BrCCCCBr	37.67
